measured_target: CXCR4 (Homo sapiens)
Sequence (P61073 whole entry): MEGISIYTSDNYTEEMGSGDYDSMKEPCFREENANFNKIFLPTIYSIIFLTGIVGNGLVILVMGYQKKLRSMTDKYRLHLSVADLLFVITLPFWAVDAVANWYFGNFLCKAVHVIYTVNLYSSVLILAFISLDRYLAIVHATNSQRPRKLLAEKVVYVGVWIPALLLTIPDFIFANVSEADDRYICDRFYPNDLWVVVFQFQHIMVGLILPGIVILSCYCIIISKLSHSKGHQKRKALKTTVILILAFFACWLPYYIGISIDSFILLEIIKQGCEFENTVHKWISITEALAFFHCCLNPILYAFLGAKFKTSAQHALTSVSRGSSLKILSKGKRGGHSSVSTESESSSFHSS
assay_details: Ca2+-assay method 2 (Flexstation, SDF-1 induced calcium mobilization)
Type: cell-based
Set-up: expressed in transfected cells; host or cells: mouse pre-B cell line 300-19
measurement_setup: method 2 (Ex. 54-160), mouse pre-B cell line 300-19 with human CXCR4, 10 nM SDF-1; read-out: IC50 (nM) Ca^2+ assay
Bridge positions count the residues as written; N and C are the ends. Square brackets hold non-standard residues; d marks the D form. Peptide text beside a SMILES is read from it. 2Nal = N[C@@H](Cc1ccc2ccccc2c1)C(=O)O; Cit = NC(=O)NCCC[C@H](N)C(=O)O
measured_attribute: IC50 (nM)
Return type: number; implicit unit nM.

Give a short answer stating reported IC50 for N=C(N)NCCC[C@@H]1NC(=O)[C@H](CCCNC(=N)N)NC(=O)[C@H]2CCCN2C(=O)CNC(=O)[C@H](CO)NC(=O)[C@@H]2CSSC[C@H](NC(=O)[C@H](Cc3ccc4ccccc4c3)NC1=O)C(=O)N[C@@H](Cc1ccc(O)cc1)C(=O)N[C@@H](CCC(N)=O)C(=O)N[C@@H](CCCCN)C(=O)N1CCC[C@@H]1C(=O)N1CCC[C@H]1C(=O)N[C@@H](Cc1ccc(O)cc1)C(=O)N[C@@H](CCCNC(=N)N)C(=O)N[C@@H](CCCNC(N)=O)C(=O)N2 [Ex. 101] (cyclo(YR[Cit]CSG[dP]RR[2Nal]CYQK[dP]P); disulfide 4-11) .
1.28

----------
assay_details: Pharmacokinetic study (PK) after single i.v. and i.p. administration
Format: in vivo, male CD-1 mice
measurement_setup: male, CD-1, mouse, in vivo, ip, 10 mg/kg, Cmax ng/ml
measured_attribute: Cmax (ng/mL)
Return type: number; implicit unit ng/mL.

Give a short answer stating reported Cmax for `N=C(N)NCCC[C@@H]1NC(=O)[C@@H]2CSSC[C@H](NC(=O)[C@H](Cc3ccc4ccccc4c3)NC(=O)[C@H](CCCNC(=N)N)NC(=O)[C@H](CCCNC(=N)N)NC(=O)[C@H]3CCCN3C(=O)CNC1=O)C(=O)N[C@@H](Cc1ccc(O)cc1)C(=O)N[C@@H](CCCNC(N)=O)C(=O)N[C@@H](CCCCN)C(=O)N1CCC[C@@H]1C(=O)N1CCC[C@H]1C(=O)N[C@@H](Cc1ccc(O)cc1)C(=O)N[C@@H](CCCNC(=N)N)C(=O)N[C@@H](CCCNC(N)=O)C(=O)N2` .
3160

----------
Consider the following compounds; for each one, report its Hemolysis at 100 μM.
System: human red blood cells (hRBC)
assay_details: Hemolysis
Type: cell-based
Bridge positions count the residues as written; N and C are the ends. Square brackets hold non-standard residues; d marks the D form. Peptide text beside a SMILES is read from it. 2Nal = N[C@@H](Cc1ccc2ccccc2c1)C(=O)O; Cit = NC(=O)NCCC[C@H](N)C(=O)O; Dab = NCC[C@H](N)C(=O)O
Return type: number; implicit unit %.

Give a short answer stating reported Hemolysis at 100 μM for N=C(N)NCCC[C@@H]1NC(=O)[C@@H]2CSSC[C@H](NC(=O)[C@H](Cc3ccc4ccccc4c3)NC(=O)[C@H](CCCNC(=N)N)NC(=O)[C@H](CCCNC(=N)N)NC(=O)[C@H]3CCCN3C(=O)CNC1=O)C(=O)N[C@@H](Cc1ccc(O)cc1)C(=O)N[C@@H](CCC(N)=O)C(=O)N[C@@H](CCCCN)C(=O)N1CCC[C@@H]1C(=O)N1CCC[C@H]1C(=O)N[C@@H](Cc1ccc(O)cc1)C(=O)N[C@@H](CCCNC(=N)N)C(=O)N[C@@H](CC(N)=O)C(=O)N2 [Ex. 92] (cyclo(YRNCRG[dP]RR[2Nal]CYQK[dP]P); disulfide 4-11) .
0.5

Give a short answer stating reported Hemolysis at 100 μM for N=C(N)NCCC[C@@H]1NC(=O)[C@@H]2CSSC[C@H](NC(=O)[C@H](Cc3ccc4ccccc4c3)NC(=O)[C@H](CCCNC(=N)N)NC(=O)[C@H](CCCNC(=N)N)NC(=O)[C@H]3CCCN3C(=O)CNC1=O)C(=O)N[C@@H](Cc1ccc(O)cc1)C(=O)N[C@@H](CCC(N)=O)C(=O)N[C@@H](CCCCN)C(=O)N1CCC[C@@H]1C(=O)N1CCC[C@H]1C(=O)N[C@@H](CCC(=O)O)C(=O)N[C@@H](CCCNC(=N)N)C(=O)N[C@@H](CCCNC(N)=O)C(=O)N2 [Ex. 68] (cyclo(ER[Cit]CRG[dP]RR[2Nal]CYQK[dP]P); disulfide 4-11) .
0.1

Give a short answer stating reported Hemolysis at 100 μM for C[C@@H](O)[C@@H]1NC(=O)[C@H](CCCNC(=N)N)NC(=O)[C@H](Cc2ccc(O)cc2)NC(=O)[C@@H]2CCCN2C(=O)[C@H]2CCCN2C(=O)[C@H](CCCCN)NC(=O)[C@H](CCC(N)=O)NC(=O)[C@H](Cc2ccc(O)cc2)NC(=O)[C@@H]2CSSC[C@H](NC1=O)C(=O)N[C@@H](CCCNC(=N)N)C(=O)NCC(=O)N1CCC[C@@H]1C(=O)N[C@@H](CCN)C(=O)N[C@@H](CCCNC(=N)N)C(=O)N[C@@H](Cc1c[nH]c3ccccc13)C(=O)N2 [Ex. 110] (cyclo(YRTCRG[dP][Dab]RWCYQK[dP]P); disulfide 4-11) .
0

Give a short answer stating reported Hemolysis at 100 μM for N=C(N)NCCC[C@@H]1NC(=O)[C@@H]2CSSC[C@H](NC(=O)[C@H](Cc3ccc4ccccc4c3)NC(=O)[C@H](CCCNC(=N)N)NC(=O)[C@H](CCCNC(=N)N)NC(=O)[C@H]3CCCN3C(=O)CNC1=O)C(=O)N[C@@H](Cc1ccc(O)cc1)C(=O)N[C@@H](CCCNC(N)=O)C(=O)N[C@@H](CCCCN)C(=O)N1CCC[C@@H]1C(=O)N1CCC[C@H]1C(=O)N[C@@H](Cc1ccc(O)cc1)C(=O)N[C@@H](CCCNC(=N)N)C(=O)N[C@@H](CCC(N)=O)C(=O)N2 [Ex. 130] (cyclo(YRQCRG[dP]RR[2Nal]CY[Cit]K[dP]P); disulfide 4-11) .
0
